Listed here are molecules together with their documented Microsome Stability (Human) (DMPK_BIIB); Mean; in vitro t1/2.
- ASSAY METHOD TEXT: Human liver microsomal stability
- Format: in vitro ADME
- EXPERIMENTAL CONTEXT: human liver microsomes; Table 3
- Description: Stability of compound (5 μL of a 10 mM DMSO solution) in human liver microsomes was tested in duplicate by incubating compound at 1 μM for 60 minutes at 37° C. Compound level at 60 minutes was compared to level at 0 minutes, and percent remaining was calculated. Order by selecting Microsomal Stability in Prometheus, checking boxes for desired species. Assay Controls: microsomes with NADPH without compound-matrix interference. Microsomes plus compound without NADPH—non-enzymatic instability.
ASSAY METRIC: Microsome Stability (Human) (DMPK_BIIB); Mean; in vitro t1/2 (min)

> print(dat)
                                    molecule  relation  recorded.measurement
 1  CCC1(c2cccc(-c3c(C)nn(C)c3C)c2)C2=C(CC(C)(C)CC2=O)Nc2ncccc21 (single isomer, unassigned) [Compound 150A]         =                   1.9
 2  CC(C)(C)Cc1cnc2c(c1)C(C)(c1ccccc1)C1=C(CC(C)(C)CC1=O)N2 (single isomer, unassigned) [Compound 129A]         =                    11
 3  CC(C)(C)Cc1cnccc1-c1cccc(C2(C)C3=C(CC(C)(C)CC3=O)Nc3ncc(F)cc32)c1 (single isomer, unassigned) [Compound 168A]         =                    33
 4  CC(C)(C)Cc1ccnc2c1C(C)(c1ccccc1)C1=C(CC(C)(C)CC1=O)N2 (single isomer, unassigned) [Compound 130A]         =                  0.55
 5  CC(C)(C)Cc1cnc2c(c1)C(C)(c1ccccc1)C1=C(CC(C)(C)CC1=O)N2 (single isomer, unassigned) [Compound 129B]         =                   1.1
 6  CCC1(c2ccccc2)C2=C(CC(C)(C)CC2=O)Nc2ncc(F)cc21 (single isomer, unassigned) [Compound 114A]         =                    49
 7  CC1(C)CC(=O)C2=C(C1)Nc1ncc(C(F)(F)F)cc1C2(C)c1ccccc1 (single isomer, unassigned) [Compound 128B]         >                   145
 8  CCC1(c2cccc(-c3c(F)cncc3OC)c2)C2=C(CC(C)(C)CC2=O)Nc2ncccc21 (single isomer, unassigned) [Compound 154A]         =                   6.4
 9  CC1(C)CC(=O)C2=C(C1)Nc1nccc(C(F)(F)F)c1C2(C)c1ccccc1 (single isomer, unassigned) [Compound 127A]         =                   8.3
10  CC1(C)CC(=O)C2=C(C1)Nc1ncc(F)cc1C2(C)c1ccccc1 (single isomer, unassigned) [Compound 107B]         =                    94
11  CC1(C)CC(=O)C2=C(C1)Nc1ncccc1C2(C)c1ccccc1 (single isomer, unassigned) [Compound 101A]         =                    37
12  CCC1(c2cccc(-c3cncn3C(C)C)c2)C2=C(CC(C)(C)CC2=O)Nc2ncccc21 (single isomer, unassigned) [Compound 149A]         =                    16
